experimental_details: E. coli growth modulation, two-sided OD650, primary screen, E. coli filamentation project, strain DRC41, 24 h (AID 1093);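 note: MC1000 strain lacking acrAB efflux and sulA so SOS filamentation is blocked; test concentration not given here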
applied_conditions: OD650, 24 h, higher = more signal, called active from +8 up or from −8 down
Values of z-score greater than or equal to 0.5 map to fulfilled; values below map to not fulfilled.

Problem: Could you tell me if the measured z-score of CN(C)CCCNC(=O)[C@@]1(C)c2ccccc2C(=O)N(Cc2cc(C(F)(F)F)cc(C(F)(F)F)c2)[C@H]1c1ccc(CO)cc1 reaches 0.5 or more?
Result: not fulfilled

Problem: API: above_or_equal(metric=z-score, cutoff=0.5) for item NC(=O)N1C(=O)C2C(C1=O)C1C=C(c3ccc(CO)cc3)C2C(C2CC2)N1Cc1sc2ccccc2c1Cl (stereo not drawn)
Result: fulfilled

Problem: Has COc1ccc([Si](C)(C)[C@@H]2[C@@H](CCO)O[C@]3(C(=O)N(Cc4cccc(N5C(=O)c6cccc7cccc5c67)c4)c4ccccc43)[C@H]2C)cc1 a recorded z-score greater than or equal to 0.5?
Result: not fulfilled

Problem: Tell me whether z-score is at least 0.5 here: COc1cc2c(cc1OC)CN(C(=O)[C@@H]1[C@H]3C(=O)O[C@H](c4ccccc4)[C@H](c4ccccc4)N3[C@H](c3ccccc3OCCO)[C@@]13C(=O)Nc1ccc(C#CC4(O)CCCCCC4)cc13)CC2
Result: fulfilled

Problem: z-score >= 0.5 for COC(=O)[C@@]1(Cc2ccc(OC)cc2)[C@H]2c3cc(C(=O)N(C)C)n(Cc4ccccc4)c3C[C@H]2CN1C(=O)c1ccccc1 ?
Result: not fulfilled

Problem: Can COC(=O)[C@@]1(Cc2ccccc2)[C@H]2c3cc(C(=O)N4CCCC4)[nH]c3C[C@H]2CN1C(=O)c1ccccc1 be said to have z-score at or above 0.5?
Result: not fulfilled

Problem: Does the reported z-score for CC(C)CCC[C@@H](C)[C@H]1CC[C@@]2(C)C3=C(CC[C@]12C)[C@@]1(C)CC[C@H](OC(=O)c2ccc(Br)cc2)C(C)(C)C1CC3 (stereo partly drawn) fall at or above the 0.5 mark?
Result: fulfilled

Problem: Could you please find out whether CC(C)c1ccc(NN2C(C(O)c3ccco3)C=CC3C(=O)N(c4ccccc4)C(=O)C32)cc1 (stereo not drawn) has z-score that meets 0.5 or exceeds it?
Result: not fulfilled

Problem: Reported z-score at or above 0.5? COCCOC(=O)N1C(=O)[C@@]2(c3cc(C#Cc4ccc(OC)cc4)ccc31)[C@H](C(=O)NC[C@H](O)c1ccccc1)[C@H]1C(=O)O[C@H](c3ccccc3)[C@H](c3ccccc3)N1[C@@H]2c1ccc(O)cc1
Result: not fulfilled

Problem: Say whether CC=CC(O)C1C=CC2C(=O)N(c3ccccc3)C(=O)C2N1Nc1ccccc1 (stereo not drawn) shows z-score of 0.5 or more.
Result: not fulfilled

Problem: Check this molecule for z-score at or above 0.5: CCOC(=O)C[C@H]1[C@H](OC(=O)Cc2ccc3c(c2)OCO3)[C@@H](NC(=O)C2CCCCC2)c2cc(OCCCO)ccc2N1C(=O)c1ccc2ccccc2n1
Result: fulfilled

Problem: Check this molecule for z-score at or above 0.5: COC(=O)C[C@H]1O[C@]2(C(=O)N(C)c3ccccc32)[C@@H](C)[C@@H]1[Si](C)(C)c1ccc(C)cc1
Result: fulfilled

Problem: Can COCCOC(=O)N1C(=O)[C@@]2(c3cc(C#Cc4ccc(OC)cc4)ccc31)[C@H](C(=O)N1CCCCCCC1)[C@H]1C(=O)O[C@H](c3ccccc3)[C@H](c3ccccc3)N1[C@@H]2c1ccc(O)cc1 be said to have z-score at or above 0.5?
Result: fulfilled

Problem: Does CCCCN1CC=CC23O[C@@H]4C=CCOC(=O)[C@@H]4[C@H]2C(=O)N(CCCO)[C@@H]3C1=O (stereo partly drawn) have a reported z-score of at least 0.5?
Result: fulfilled

Problem: z-score >= 0.5 for CC=CC(O)C1C=CC2C(=O)N(C)C(=O)C2N1N1CCCCC1 (stereo not drawn) ?
Result: not fulfilled

Problem: z-score >= 0.5 for CC(C)C(CO)N1C(=O)[C@]2(C)C3C(=O)OCCC/C=C\[C@H]3OC23C=CCN(c2ccc(Cl)cc2)C(=O)[C@@H]13 (stereo partly drawn) ?
Result: not fulfilled

Problem: Check this molecule for z-score at or above 0.5: CC(C)CNC(=O)[C@@]1(c2ccc([N+](=O)[O-])cc2)CC(=O)N(C2CCCCC2)[C@@H]1c1ccc(CO)cc1I
Result: not fulfilled

Problem: Could you please find out whether O=C1O[C@@H](c2ccccc2)[C@@H](c2ccccc2)N2[C@@H](c3ccccc3OCCO)[C@]3(C(=O)Nc4ccc(C#CCCO)cc43)[C@@H](C(=O)N3CCN(c4ncccn4)CC3)[C@H]12 has z-score that meets 0.5 or exceeds it?
Result: fulfilled

Problem: Please tell me: is the molecule CC(C)(C)OC(=O)CC[C@]1(C(=O)O)N=C(c2ccc(OCCCO)cc2)O[C@H]1c1ccccc1 at or over 0.5 in terms of z-score?
Result: not fulfilled

Problem: hey, is z-score for this one >= 0.5? CCCN1C(=O)[C@]2(Cc3ccccc3)N=C(c3ccc(OCCCO)cc3)O[C@@H]2c2ccccc21
Result: fulfilled

Problem: Check the entry C=C(CCCC)C(=O)CC[C@@H](OC(=O)c1cccnc1)c1ccccc1OCCO : does z-score equal or exceed 0.5?
Result: not fulfilled

Problem: Given the entry COCCCNC(=O)[C@@H]1c2ccccc2C(=O)N(Cc2ccccc2C(F)(F)F)[C@H]1c1ccc(CO)cc1 , answer whether its z-score meets or surpasses 0.5.
Result: fulfilled

Problem: Given C[C@H]1C2=C3C(CC[C@H]4C(OCc5ccc(F)cc5C(F)(F)F)OC[C@](C)([C@@H]34)N(C(=O)OC(C)(C)C)C2)C2COC(=O)OCC21 (stereo partly drawn) , state whether its z-score is at least 0.5.
Result: not fulfilled

Problem: Assess whether reported z-score for CO[C@H]1O[C@H](CO)[C@@H](OC(=O)Nc2ccccc2-c2ccccc2)[C@H](OC(=O)Nc2ccc3c(c2)OCO3)[C@@H]1OC(=O)Nc1ccc2c(c1)OCO2 sits at 0.5 or higher.
Result: not fulfilled

Problem: Does Cc1ccc(S[C@]2(C(=O)O)CC(=O)N(Cc3ccccc3Cl)[C@@H]2c2ccc(CO)cc2)cc1 have a reported z-score of at least 0.5?
Result: not fulfilled

Problem: Confirm if z-score reported for the molecule COC1(C)CN(Cc2ccccc2Br)[C@H](/C=C/c2ccccc2)[C@H](Cc2ccccc2)O1 (stereo partly drawn) is 0.5 or above.
Result: fulfilled

Problem: Could you tell me if the measured z-score of COc1ccc(NN2C(C(O)c3ccco3)C=CC3C(=O)N(C4CCCCC4)C(=O)C32)cc1 (stereo not drawn) reaches 0.5 or more?
Result: not fulfilled

Problem: Textbook exercise: given the entry COCC(=C=CC[C@H](O)c1ccc(OCCO)cc1)C[C@H](O)COCc1ccccc1 , state whether its z-score is greater than or equal to 0.5.
Result: fulfilled
